Taken from PubChem BioAssay AID1159580.

# EXPERIMENTAL_PROTOCOL: chemical genetic growth profiling, strain panel (AID 1159580);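 note: tested at 20 µM; growth read once vehicle control cultures reached saturation at 30 °C; 1 = growth at the plate median or of vehicle wells; lower values mean less growth of the strain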
# DETAILS: S. cerevisiae deletion strains, growth OD, locus YLR262C, strain YPT6 (second series), active compounds read low
About 2,000 (36%) of roughly 5,500 compounds were called active. Inconclusive results (about 18%) are left out. The list shows a part of the results. Where a SMILES comes first, the peptide text is derived from it.
Hi there, I'd appreciate the recorded normalized growth for every entry that follows.
Please reply with the number alone, leaving off any unit.

Query: Bench note: what normalized growth did `Cc1cc(OC(=O)c2c(C)cc(O)cc2O)cc(O)c1C(=O)O` show?
Response: 1.01

Query: Bench note: what normalized growth did CC(=O)Oc1ccc2c(c1C(C)C)CCC1C(C)(C)CCC[C@]21C (stereo partly specified) show?
Response: 1.01

Query: Bench note: what normalized growth did Cc1ccccc1OCC(O)CO (stereo unspecified) show?
Response: 0.973

Query: Bench note: what normalized growth did O=C(Cc1cccs1)NC1C(=O)N2C(C(=O)[O-])=C(C[n+]3ccccc3)CSC12 (stereo unspecified) show?
Response: 0.973

Query: Bench note: what normalized growth did `COC(=O)c1c(C)cc(OC)cc1O` show?
Response: 1.02

Query: Bench note: what normalized growth did COC(=O)[C@H](Cc1ccccc1)NC(=O)[C@@H](N)CC(=O)O (H-Asp-Phe-OMe) show?
Response: 1.02

Query: Bench note: what normalized growth did `O=c1c(O)c(-c2ccc(O)c(O)c2)oc2c(O)c(O)cc(O)c12` show?
Response: 0.919

Query: Bench note: what normalized growth did `COC1=CC(=O)C(C(=O)c2ccccc2)=CC1=O` show?
Response: 0.975

Query: Bench note: what normalized growth did C[C@H]1O[C@H](OC2[C@@H](O)[C@@H](O)C(O)[C@H](O)[C@H]2O)[C@@H](N)C[C@@H]1N=C(N)C(=O)O (stereo partly specified) show?
Response: 0.912

Query: Bench note: what normalized growth did `COC(=O)c1c(C)cc(O)cc1O` show?
Response: 0.985

Query: Bench note: what normalized growth did CC(C)(C)NCC(O)c1cc(O)cc(O)c1 (stereo unspecified) show?
Response: 1
